These data points were gathered from PubChem BioAssay (NCI).

tested on: HCC-2998 colon; test: NCI tumour cell line growth inhibition, 48 h; in the data active = GI50 below about 0.43 µM; inactive = the rest
Reply using exactly one outcome from active, inactive

COc1cc(-c2nc3sccn3c2-c2ccnc(NCCNS(=O)(=O)c3ccc(F)cc3)n2)ccc1F
inactive
NCCNCCNCCN
inactive
Cc1ccc(NC2=C3CCCCC3OC2=O)cc1 (stereo unspecified)
inactive
C/C=C/[C@@H]1O[C@@H]2COC(=O)C2=C[C@@H]1O
inactive
CC(=C(c1ccc(OCCN2CCCCC2)cc1)c1ccc(OCCN2CCCCC2)cc1)c1ccc(Cl)cc1
active

Moving on to the next compound.
Tell me the recorded outcome of this test for `c1ccc(Nc2ncc(-c3ccccc3)o2)cc1` .
inactive
